# MEASUREMENT_DESCRIPTION: Particle size and polydispersity index (PDI) of nanolipid particles, dynamic light scattering
# Assay type: physicochemical
# APPLIED_CONDITIONS: LNP formulation prepared from the named cationic lipid, 25° C
# Method: The particle size and polydispersity index (PDI) were determined by dynamic light scattering method using a Malvern laser particle size analyzer. 10 μL of liposome solution was diluted to 1 mL with RNase-free deionized water and added to a sample pool. Each sample was measured three times. The measurement conditions were: 90° scattering angle, 25° C.

[
  {
    "COMPOUND": "CCCCCCCCC(CCCCCCCC)COC(=O)CCCCCN(CCCCCC(=O)OCC(CCCCCCCC)CCCCCCCC)CCN(C)CCO",
    "PDI [%]": 26.6
  },
  {
    "COMPOUND": "CCCCCCCCCCCCC(O)CN(C)CCCCCC(=O)OCC(CCCCCC)CCCCCCCC (stereo not drawn) [HHMA, reference compound]",
    "PDI [%]": 15.1
  },
  {
    "COMPOUND": "CCCCCCCCCCCOC(=O)CCCCCN(CCCCCCCC(=O)OC(CCCCCCC)CCCCCCC)CCN(CC)CCO",
    "PDI [%]": 17.7
  },
  {
    "COMPOUND": "CCCCCCCCC(CCCCCCCC)OC(=O)CCCCCN(CCCCCC(=O)OC(CCCCCCCC)CCCCCCCC)CCN(CCO)CCO",
    "PDI [%]": 17.6
  },
  {
    "COMPOUND": "CCCCCCCCCCCOC(=O)CCCCCN(CCCCCCCC(=O)OC(CCCCCCCC)CCCCCCCC)CCN(C)CCNC",
    "PDI [%]": 30.4
  },
  {
    "COMPOUND": "CCCCCCCCCCCOC(=O)CCCCCN(CCCCCCCC(=O)OC(CCCCCCCC)CCCCCCCC)CCN(CC)CCO",
    "PDI [%]": 17.7
  },
  {
    "COMPOUND": "CCCCCCCCCCCOC(=O)CCCCCN(CCCCCCCC(=O)OCC(CCCCCCCC)CCCCCCCC)CCN(C)CCO",
    "PDI [%]": 23.4
  },
  {
    "COMPOUND": "CCCCCCCCCCCOC(=O)CCCCCN(CCCCCCCC(=O)OC(CCCCCCC)CCCCCCC)CCN(C)CCO",
    "PDI [%]": 18.8
  },
  {
    "COMPOUND": "CCCCCCCCCCOC(=O)CCCN(CCCCCC(=O)OCC(CCCCCCCC)CCCCCCCC)CCN(CC)CCO",
    "PDI [%]": 24.4
  }
]
